Target: I-E
Assay: MHC I-E binding of substituted MBP 87-99 peptides
Set-up: species or system rat
Conditions: read-out: (M*C) IC50 I-E Binding
Description: A set of substituted peptides based on the sequence VHFFKNIVTPRT (Seq. ID No. 39), which is identical in rats, mice and human myelin basic protein (MBP), and corresponds to the I-E restricted epitope MBP 87-99 in the rat was produced. The peptides are shown in Table 1 (Seq. ID Nos. 39 to 52 respectively) MHC binding was measure say described in Smilek et al, 1991, Gautam et al 1992a&b.
parameter measured: IC50 (µM)
Numbers only, in µM.

# value of IC50, I-E, item CC[C@H](C)[C@H](NC(=O)[C@H](CC(N)=O)NC(=O)[C@H](CCCCN)NC(=O)[C@H](Cc1ccccc1)NC(=O)[C@H](Cc1ccccc1)NC(=O)[C@H](Cc1c[nH]cn1)NC(=O)[C@@H](N)C(C)C)C(=O)N[C@H](C(=O)N[C@H](C(=O)N1CCC[C@H]1C(=O)N[C@@H](CCCNC(=N)N)C(=O)N[C@H](C(=O)N1CCC[C@H]1C(=O)O)[C@@H](C)O)[C@@H](C)O)C(C)C [native, reference compound] = 14

----------
Molecular target: I-E
Experiment: MHC I-E binding of substituted MBP 87-99 peptides
Parameters: species or system rat
Conditions: read-out: (M*C) IC50 I-E Binding
For each entry below, report its IC50 value.
// unit must come after the numeric part

IC50 reported for this compound CC[C@H](C)[C@H](NC(=O)[C@H](CC(N)=O)NC(=O)[C@H](CCCCN)NC(=O)[C@H](Cc1ccccc1)NC(=O)[C@H](Cc1ccccc1)NC(=O)[C@H](Cc1c[nH]cn1)NC(=O)[C@@H](N)C(C)C)C(=O)N[C@H](C(=O)N[C@H](C(=O)N1CCC[C@H]1C(=O)N[C@@H](CCCNC(=N)N)C(=O)N[C@H](C(=O)N[C@@H](C)C(=O)O)[C@@H](C)O)[C@@H](C)O)C(C)C : 10 µM

Continue with the next compound.
IC50 for CC[C@H](C)[C@H](NC(=O)[C@H](CC(N)=O)NC(=O)[C@H](CCCCN)NC(=O)[C@H](Cc1ccccc1)NC(=O)[C@H](Cc1ccccc1)NC(=O)[C@H](Cc1c[nH]cn1)NC(=O)[C@@H](N)C(C)C)C(=O)N[C@H](C(=O)N[C@H](C(=O)N1CCC[C@H]1C(=O)N[C@@H](C)C(=O)N[C@H](C(=O)N1CCC[C@H]1C(=O)O)[C@@H](C)O)[C@@H](C)O)C(C)C is 20 µM

Recorded values, source patent US20020076412A1.
